Recorded Velvetleaf plant response rating values for a group of compounds are listed next.
System: velvetleaf
Assay: Test B pre/postemergence velvetleaf
Type: in vivo, Abutilon theophrasti
Details: Postemergence, Rate 62 g/ha; scale 0 to 10, 0 is no effect, 10 is complete control

| chemical-smiles | Velvetleaf plant response rating |
| --- | --- |
| CCN(CC)C(=O)n1oc(=O)n(-c2cc(Cl)cc(Cl)c2)c1=O | 0 |
| CC(C)N(C(=O)n1oc(=O)n(-c2c(Cl)cccc2Cl)c1=O)c1ccc(F)cc1 | 0 |
| CC(C)N(C(=O)n1oc(=O)n(Cc2ccccc2)c1=O)c1ccc(F)cc1 | 2 |
| Cc1ccc(N(C(=O)n2oc(=O)n(-c3ccccc3C)c2=O)C(C)C)cc1 | 0 |

* * *

Recorded Bedstraw plant response rating values for a group of molecules are listed next.
System: bedstraw
Assay: Test B pre/postemergence bedstraw
Assay type: in vivo, Galium aparine
Conditions: Postemergence, Rate 62 g/ha; scale of 0 to 10, 0 is no effect, 10 is complete control
measured-metric: Bedstraw plant response rating

| molecule | numeric-result |
| --- | --- |
| CC(C)N(C(=O)n1oc(=O)n(CCC2OCCO2)c1=O)c1ccccc1 [Compound 560] | 0 |
| CC(C)N(C(=O)n1oc(=O)n(CC(=O)N(C)C)c1=O)c1ccc(F)cc1 [Compound 586] | 0 |
| CC(C)N(C(=O)n1oc(=O)n(CCC(F)(F)F)c1=O)c1ccccc1 [Compound 584] | 5 |
| CCC=CCn1c(=O)on(C(=O)N(c2ccc(Cl)cc2)C(C)C)c1=O [Compound 552] | 2 |

* * *

Tested on: sugar beet
Test: Test B pre/postemergence sugar beet
Type: in vivo, Beta vulgaris
Conditions: Postemergence, Rate 125 g/ha; scale 0 to 10, 0 is no effect, 10 is complete control
Procedure: […] At the same time, these crop and weed species were also treated with postemergence applications of test chemicals formulated in the same manner. […] Treated plants and controls were maintained in a greenhouse for twelve to sixteen days, after which all species were compared to controls and visually evaluated. […]

| compound | Plant response rating, Sugarbeets |
| --- | --- |
| CC(C)N(C(=O)n1oc(=O)n(C2CCCO2)c1=O)c1ccc(F)cc1 (stereo not shown) [Compound 345] | 0 |
| Cc1cccc(C(C)(C)C)c1-n1c(=O)on(C(=O)N(c2ccc(F)cc2)C(C)C)c1=O [Compound 359] | 0 |
| CCOc1nc(C(F)(F)F)c(Cn2c(=O)on(C(=O)N(c3ccccc3)C(C)C)c2=O)s1 [Compound 379] | 0 |
| CCN(CC)C(=O)n1oc(=O)n(-c2ccccc2C)c1=O [Compound 364] | 0 |

* * *

Recorded Crabgrass plant response rating values for a group of compounds are listed next.
Test system: crabgrass
Experiment: Test B pre/postemergence crabgrass
Format: in vivo, Digitaria sanguinalis
Conditions: Preemergence, Rate 500 g/ha; scale 0 to 10 (0 no effect, 10 complete control)

| compound | target-or-test-system | Crabgrass plant response rating |
| --- | --- | --- |
| C=CCn1c(=O)on(C(=O)N(c2ccc(F)cc2)C2CC2)c1=O [Compound 154] | crabgrass | 0 |
| Cc1nsc(C)c1-n1c(=O)on(C(=O)N(c2ccc(Cl)cc2)C(C)C)c1=O [Compound 159] | crabgrass | 0 |
| COc1ccccc1Cn1c(=O)on(C(=O)N(c2ccccc2)C(C)C)c1=O [Compound 104] | crabgrass | 9 |
| CC(C)N(C(=O)n1oc(=O)n(N(C)C)c1=O)c1ccc(F)cc1 [Compound 170] | crabgrass | 10 |
| CCN(CC)C(=O)n1oc(=O)n(Cc2ccccc2)c1=O [Compound 152] | crabgrass | 3 |
| CC(C)N(C(=O)n1oc(=O)n([C@@H](C)c2ccccc2)c1=O)c1ccc(F)cc1 [Compound 167] | crabgrass | 10 |
| Cc1nsc(C)c1-n1c(=O)on(C(=O)N(c2ccc(F)cc2)C(C)C)c1=O [Compound 157] | crabgrass | 6 |
| CC1CCCCC1n1c(=O)on(C(=O)N(c2ccccc2)C(C)C)c1=O (stereo not drawn) [Compound 162] | crabgrass | 10 |
| CC(C)N(C(=O)n1oc(=O)n([C@@H](C)c2ccccc2)c1=O)c1ccccc1 [Compound 168] | crabgrass | 7 |
